// data source = patent US20230127304A1

Protocol notes: Dynamic light scattering (DLS) aggregation
Assay type: physicochemical
Experimental setup: 20 μM compound, triplicates average
Let's look at some molecules and their measured Radius.
Please don't drop the unit; write it after the number.

Worked cases, Radius given:
INSERT INTO assay_data (compound, observed_property, experimental_result) VALUES
  ('O=C1C[C@@H](c2ccc3ncccc3c2)c2c(cc(O)c3c(=O)cc(-c4ccc(O)cc4)oc23)O1', 'Radius', '2.547 nm'),
  ('C[C@H]1CCc2c(sc3ncnc(N4CCO[C@@H](CN5C(=O)c6ccccc6C5=O)C4)c23)C1', 'Radius', '2.510 nm'),
  ('O=S(=O)(N=C1CCCCCN1)c1ccc2sc(NS(=O)(=O)c3ccc4ccccc4c3)nc2c1', 'Radius', '1.862 nm');

[in] Read off the recorded Radius for O=C(c1cc(-c2ccc3c(c2)OCCO3)nc2ccccc12)N1CCC(Cc2ccccc2)CC1
[out] 4.446 nm

====

Target: NRF2-KEAP1 interaction (Mus musculus)
Construct: mouse KEAP1 Kelch domain (residues 322-624); made in house; host or cells: E. coli BL21(DE3); peptide purchased from GenScript USA Inc
Sequence (Q9Z2X8 322-624): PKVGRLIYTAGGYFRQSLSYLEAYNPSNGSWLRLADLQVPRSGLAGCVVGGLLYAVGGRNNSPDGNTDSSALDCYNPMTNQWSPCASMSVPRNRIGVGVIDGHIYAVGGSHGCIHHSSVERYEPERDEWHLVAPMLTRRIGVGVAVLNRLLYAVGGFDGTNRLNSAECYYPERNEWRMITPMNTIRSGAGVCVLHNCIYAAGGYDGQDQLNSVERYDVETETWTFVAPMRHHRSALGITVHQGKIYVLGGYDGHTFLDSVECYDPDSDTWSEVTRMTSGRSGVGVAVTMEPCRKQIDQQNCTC
Protocol notes: BLI displacement assay
Format: binding
Experimental setup: ability to displace the NRF2-peptide
Observed property: BLI Assay

INSERT INTO measurements (molecule, experimental_result) VALUES
  ('C[C@H]1CCc2c(sc3ncnc(N4CCO[C@@H](CN5C(=O)c6ccccc6C5=O)C4)c23)C1 [iKeap73]', 'active'),
  ('CC(=O)N/C(=C\c1ccc(Cc2nc3c([nH]2)C(=O)c2ccccc2C3=O)cc1)c1nc2c([nH]1)C(=O)c1ccccc1C2=O [iKeap48]', 'active'),
  ('O=S(=O)(Nc1nc2ccccc2nc1N1CCC[C@@H](c2nc3ccccc3[nH]2)C1)c1ccccc1 [iKeap33]', 'active');

====

Target: GST-KEAP1 (Mus musculus, UniProt Q9Z2X8)
Construct: mouse KEAP1 Kelch domain (residues 322-624); made in house; host or cells: E. coli BL21(DE3)
Sequence (Q9Z2X8 322-624): as above
Protocol notes: SPR Level-3 steady-state binding
Experimental setup: steady-state SPR; read-out: Kd (binding affinity to KEAP1)
Observed property: Kd (nM)
Write the number in nM without appending the unit.

[in] Read off the recorded Kd for O=C(O)c1ccc(NC2=C/C(=N\S(=O)(=O)c3ccc4ccccc4c3)c3ccccc3C2=O)cc1 [iKeap2]
[out] 158

====

Target: GST-KEAP1 (Mus musculus)
Construct: mouse KEAP1 Kelch domain (residues 322-624); made in house; host or cells: E. coli BL21(DE3)
Protocol notes: SPR Level-3 steady-state binding
Experimental setup: SPR Level-3, average of three independent experiments; read-out: Kd average
Observed property: Kd (nM)
Write the number in nM without appending the unit.

[in] Read off the recorded Kd for O=C(O)c1ccc(NC2=C/C(=N\S(=O)(=O)c3ccc4ccccc4c3)c3ccccc3C2=O)cc1
[out] 252

====

Tested on: NQO1
Protocol notes: NQO1 assay
Assay type: cell-based
Experimental setup: Hepa1c1c7 cells, 48 h, 2.5 uM; 0 uM = 1
Let's look at some molecules and their measured specific activity of NQO1.
// keep it numeric: no unit symbol after the value

Worked cases, specific activity of NQO1 given:
INSERT INTO results (compound, target, experimental_result) VALUES
  ('O=C(Nc1cccc(-c2nnn[nH]2)c1)[C@@H]1C[C@H]2CCCC[C@H]2N1C(=O)c1ccc2ccccc2c1', 'NQO1', 1.08),
  ('O=S(=O)(O)c1ccc(/N=N\c2ccc(/N=N\c3ccc(O)c4cccc(S(=O)(=O)O)c34)cc2)cc1', 'NQO1', 1.29),
  ('CC1=NN(c2ccccc2)C(=O)/C1=C\c1ccc(-c2cc(C(=O)O)ccc2Cl)o1', 'NQO1', 1.3);

[in] Read off the recorded specific activity of NQO1 for O=C(O)c1ccc(NC2=C/C(=N\S(=O)(=O)c3ccc4ccccc4c3)c3ccccc3C2=O)cc1
[out] 1.91

[in] Read off the recorded specific activity of NQO1 for Cc1ccc(S(=O)(=O)Oc2nc3nc4ccccc4nc3nc2OS(=O)(=O)c2ccc(C)cc2)cc1
[out] 2.1

[in] Read off the recorded specific activity of NQO1 for O=C1OC(c2ccc([N+](=O)[O-])cc2)=N/C1=C\c1cccc2ccccc12
[out] 1.27
